test: Solubility of the compound in JP2 buffer at pH 6.8 at 10 mmol/L; type: physicochemical
REPORTED_METRIC: log10(solubility) (log10 of the value in µg/mL)

- COMPOUND: "COc1ccc(N2CCCn3c2nc2c(Cl)ccc(C(OC(F)F)C(F)(F)F)c23)c(C)c1 (racemic)"
  REPORTED_METRIC: "log10(solubility)"
  NUMERIC_RESULT: 0.18
- COMPOUND: "COc1ccc(N2CCCn3c2nc2c(Cl)ccc(C(OC(F)F)C(F)(F)F)c23)c(C)n1 (racemic)"
  REPORTED_METRIC: "log10(solubility)"
  NUMERIC_RESULT: 1.23
- COMPOUND: "CCc1nc(C)nc(CC)c1N1CCCn2c1nc1c(Cl)ccc(C(OC(F)F)C(F)(F)F)c12 (racemic)"
  REPORTED_METRIC: "log10(solubility)"
  NUMERIC_RESULT: 1.66
- COMPOUND: "COc1nc(C)nc(OC)c1N1CCCn2c1nc1c(Cl)ccc(C(OC(F)F)C(F)(F)F)c12 (racemic)"
  REPORTED_METRIC: "log10(solubility)"
  NUMERIC_RESULT: 1.15
- COMPOUND: "COc1nc(C)c(N2CCCn3c2nc2c(Cl)ccc(C(OC(F)F)C(F)(F)F)c23)c(C)n1 (racemic)"
  REPORTED_METRIC: "log10(solubility)"
  NUMERIC_RESULT: 1.73
- COMPOUND: "CCc1nc(C)c(N2CCCn3c2nc2c(Cl)ccc(C(OC(F)F)C(F)(F)F)c23)c(C)n1 (racemic)"
  REPORTED_METRIC: "log10(solubility)"
  NUMERIC_RESULT: 1.57
- COMPOUND: "Cc1nc(C)c(N2CCCn3c2nc2c(Cl)ccc(C(OC(F)F)C(F)(F)F)c23)c(C)n1 (racemic)"
  REPORTED_METRIC: "log10(solubility)"
  NUMERIC_RESULT: 1.85
